B1: LINE1-full (parent)
chain: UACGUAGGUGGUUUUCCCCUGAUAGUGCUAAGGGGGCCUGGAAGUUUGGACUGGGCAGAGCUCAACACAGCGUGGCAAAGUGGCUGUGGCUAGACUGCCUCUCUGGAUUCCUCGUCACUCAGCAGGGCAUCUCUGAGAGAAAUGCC

# Variants of: B1
# assay.remarks: self-cleavage, relative activity (ratio to wild type); higher = more cleavage; in vitro, sequencing; the parent is a self-cleaving ribozyme
Listed variants paired with reported self-cleavage
Note: the reply should be a number with no unit written.

// below: answered variants
{"seq.string": "UACGUAGGUGGUUUUCCCCUGAUAGUGCUAAGGGGGCCUGGAAGUUUGGACUGGGCAGAGCUCAACACAGCGUGGCAAAGUGGCUGUGGCUUGACUGCCUCUCUGGUUUCCUCGUCACUCAGCAGGGCAUCUCUGAGAGAAAUGCC [A92U A107U]", "self-cleavage": 0.89}
{"seq.string": "UACGUAGGUGGUUUUCCCCUGAUAGUGCUAAGGGGGCCUGGAAGUUUGGACUGGGCAGAGCUCAACACAGCGUGGCAAAGUGGCUGGGGCUAGACUGCCUCUCUGGAUUCCCCGUCACUCAGCAGGGCAUCUCUGAGAGAAAUGCC [U87G U112C]", "self-cleavage": 0.05}
{"seq.string": "UACGUGGGUGGUUUUCCCCUGAUAGUGCUAAGGGGGCCUGGAAGUUUGGGCUGGGCAGAGCUCAACACAGCGUGGCAAAGUGGCUGUGGCUAGACUGCCUCUCUGGAUUCCUCGUCACUCAGCAGGGCAUCUCUGAGAGAAAUGCC [A6G A50G]", "self-cleavage": 0.77}
{"seq.string": "UACGUAGGUGGUUUUCCCCUGAUAGUGCUAAGGGGGCCUGGAAGUUGGGACUGGGCAGAGCUCAACACAGCGUGGCAAAGUGGCUGUGGCUAGACUGCCUCUCUGGAUCCCUCGUCACUCAGCAGGGCAUCUCUGAGAGAAAUGCC [U47G U109C]", "self-cleavage": 2.63}
{"seq.string": "UACGUAGGUGGUUUUCCCCUGAUAGUGCUAUGGGGGCCUGGAAGUUUGGACUGGGCAGAGCUCAACACAGCGUGGCUAAGUGGCUGUGGCUAGACUGCCUCUCUGGAUUCCUCGUCACUCAGCAGGGCAUCUCUGAGAGAAAUGCC [A31U A77U]", "self-cleavage": 0.96}
{"seq.string": "UACGUAGGUGGUUUUCCCCUGAUAGUGCUAAGGGGGCCUGGAAGUUUGGACUGGGCAGAGGUCAACACAGCGUGGCAAAGUGGCUGUGGCUAGACUGCCUCUCUGGAUUCCUCGUCACUCAGCAGGGCCUCUCUGAGAGAAAUGCC [C61G A129C]", "self-cleavage": 0.03}
{"seq.string": "UACGUAGGUGGUUUUCCCCUGAUAGUGCUAAAGGGGCCUGGAAGUUUGGACUGGGCAGAGCUCAACACAGCGUGGCAAAGUGGCUGUGGCUAGACUGCCUCUCUGGAUUCCUCGUCACUCAGCGGGGCAUCUCUGAGAGAAAUGCC [G32A A124G]", "self-cleavage": 0.69}
{"seq.string": "UACGUAGGUGGUUCUCCCCUGAUAGUGCUAAGGGGGCCUGGAAGUUUGGACUGGGCAGAGCUCAACACAGCGUGGCAAAGUGGCUGUGGCUAGACUGCCUCUCUGGAUUCCUCGUCACUCAGCAGGGCAACUCUGAGAGAAAUGCC [U14C U130A]", "self-cleavage": 1.47}

stdin: Which self-cleavage reading was recorded for the variant UACGUAGGUGGUUUUCCCCUGAUAGUGCUACGGGGGCCUGGAAGUUUGGACUGGGCAGAGCUCAACACAGCGUGGCAAAGUGGCUGUGGCUAGACUGCCUCUCUGGAUUCCUCGUCACUCAGCAGGGCAUCUCUGAGAGAGAUGCC [A31C A141G] ?
stdout: 1.43

stdin: Which self-cleavage reading was recorded for the variant UACGUAGGUGGUUUUCCCCUGAUAGCGCUAAGGGGGCCUGGAAGUUUGGACUGGGCAGAGCUCAACACAGCGUGGCAAAGUGGCUGUGGCUAGACUGCCUCUCUGGAUUCCUCGUCACUCAGCAGGGCAUCUCUGAGAGAGAUGCC [U26C A141G] ?
stdout: 1.27

stdin: Which self-cleavage reading was recorded for the variant UACGUUGGUGGUUUUCCCCUGAUAGUGCUAAGGGGGCCUGGAAGUUUGGACUGGGCAGAGCUCAACACAGCGUGGCAAAGUGGCUGUGGCUAGACUGCCUCUCUGGGUUCCUCGUCACUCAGCAGGGCAUCUCUGAGAGAAAUGCC [A6U A107G] ?
stdout: 1.05
